- Measurement Description: qHTS assay to identify small molecule agonists of the estrogen receptor beta (ER-beta) signaling pathway - cell viability counter screen (AID 1259380); further: nearly all actives have a fitted effect of over 30% in size
- Recorded Conditions: ER-beta-bla HEK293T viability, CellTiter-Glo luminescence, 16 h; series mostly up to 92.4 µM
Results filed as inconclusive are left out. Calls of active or inactive are those of the source. The call rests on the fitted dose curve; in most records, active means well fitted cell-killing curve with a large enough effect in the repeat runs; inconclusive means weak or mixed curves, or effect the other way; inactive means flat fitted curve, though single readings scatter.
Hi! Could you answer with just one of these? active, inactive

Some solved cases for reference:
[
  {
    "Compound": "OCCSc1ccccc1",
    "Category": "active"
  },
  {
    "Compound": "CCCCC(=O)O[C@]1(C(=O)CO)CC[C@H]2[C@@H]3CCC4=CC(=O)CC[C@]4(C)[C@H]3[C@@H](O)C[C@@]21C",
    "Category": "inactive"
  },
  {
    "Compound": "NCC1CCCC(CN)C1 (stereo not drawn)",
    "Category": "inactive"
  }
]

Dear all, I need the recorded test outcome for CCCOC(=O)c1ccc(N)cc1 , thank you.
inactive

Dear all, I need the recorded test outcome for COC(=O)Nc1nc2ccc(C(=O)c3cccs3)cc2[nH]1 , thank you.
inactive

Dear all, I need the recorded test outcome for Brc1cc(-c2ccc(Br)c(Br)c2Br)cc(Br)c1Br , thank you.
inactive

Dear all, I need the recorded test outcome for CCC(=O)OC/C=C/c1ccccc1 , thank you.
inactive

Dear all, I need the recorded test outcome for CC(=N\O)/C(C)=N/O , thank you.
inactive

Dear all, I need the recorded test outcome for O=C(O)c1snc(Cl)c1Cl , thank you.
inactive

Dear all, I need the recorded test outcome for O=C(O)c1cccnc1C(=O)O , thank you.
inactive

Dear all, I need the recorded test outcome for C[N+]1(C)CCC(=C(c2ccccc2)c2ccccc2)CC1 , thank you.
inactive

Dear all, I need the recorded test outcome for COc1cc2ncnc(Nc3ccc(F)c(Cl)c3)c2cc1OCCCN1CCOCC1 , thank you.
active

Dear all, I need the recorded test outcome for CN(C)C(=O)Nc1ccc(Oc2ccc(Cl)cc2)cc1 , thank you.
inactive

====

- Measurement Description: A CellTox Green Cytotoxicity Assay to monitor cytotoxicity in HEK293 cells - 24 hour (AID 1224875); further: nearly all actives have a fitted effect of over 45% in size
- Recorded Conditions: CellTox Green fluorescence; series mostly up to 76.8 µM
Inconclusive results are not listed. Activity calls are given as the source filed them. Calls follow the shape of the dose curve; as a rule, active = well fitted activation curve with a large enough effect in the repeat runs; inconclusive = weak or mixed curves; inactive = flat fitted curve, though single readings scatter.
Hi! Could you answer with just one of these? yes (1) for active, no (0) for inactive

[
  {
    "Compound": "O=C(CCC1CCN(Cc2ccccc2)CC1)c1ccc2c(c1)NCCCC2",
    "Category": "no (0)"
  },
  {
    "Compound": "Cc1ccc(S)cc1",
    "Category": "no (0)"
  },
  {
    "Compound": "Nc1nc(Cl)nc2c1ncn2[C@@H]1O[C@H](CO)[C@@H](O)[C@@H]1F",
    "Category": "no (0)"
  },
  {
    "Compound": "CCCCCCCCCCCCCCC[C@H](O)[C@@H](N)CO",
    "Category": "yes (1)"
  },
  {
    "Compound": "CCCCCCCCCCOS(=O)(=O)O",
    "Category": "no (0)"
  },
  {
    "Compound": "Nc1ccc(S(=O)(=O)O)cc1",
    "Category": "no (0)"
  },
  {
    "Compound": "CNC(=S)NC",
    "Category": "no (0)"
  },
  {
    "Compound": "O=C(CCCN1CCC(O)(c2ccc(Br)cc2)CC1)c1ccc(F)cc1",
    "Category": "no (0)"
  }
]

Dear all, I need the recorded test outcome for CC(=O)OCC(=O)[C@H]1CC[C@H]2[C@@H]3CCC4=CC(=O)CC[C@]4(C)[C@H]3CC[C@]12C , thank you.
no (0)

Dear all, I need the recorded test outcome for CN(C)C(=O)Nc1ccc(Oc2ccc(Cl)cc2)cc1 , thank you.
no (0)

Dear all, I need the recorded test outcome for CCCCC(CC)CNCC(CC)CCCC (stereo not drawn) , thank you.
no (0)

Dear all, I need the recorded test outcome for CCOC(=O)[C@@H](C)Oc1ccc(Oc2nc3ccc(Cl)cc3o2)cc1 , thank you.
no (0)

Dear all, I need the recorded test outcome for Cc1nccn1-c1ccc(Sc2cccc(C3(C(N)=O)CCOCC3)c2)cc1 , thank you.
no (0)

Dear all, I need the recorded test outcome for CC(N)CN (stereo not drawn) , thank you.
no (0)

Dear all, I need the recorded test outcome for CCc1cccc(N(C)C(N)=Nc2cccc3ccccc23)c1 , thank you.
no (0)

Dear all, I need the recorded test outcome for CC(C)(O)c1ccccc1CC[C@@H](SCC1(CC(=O)O)CC1)c1cccc(/C=C/c2ccc3ccc(Cl)cc3n2)c1 , thank you.
no (0)

Dear all, I need the recorded test outcome for O=C(O)c1c(O)c(-c2ccccc2)nc2ccccc12 , thank you.
no (0)

====

- Tested On: Estrogen receptor (Homo sapiens) (UniProt P03372)
- Sequence (P03372 whole entry, looked up): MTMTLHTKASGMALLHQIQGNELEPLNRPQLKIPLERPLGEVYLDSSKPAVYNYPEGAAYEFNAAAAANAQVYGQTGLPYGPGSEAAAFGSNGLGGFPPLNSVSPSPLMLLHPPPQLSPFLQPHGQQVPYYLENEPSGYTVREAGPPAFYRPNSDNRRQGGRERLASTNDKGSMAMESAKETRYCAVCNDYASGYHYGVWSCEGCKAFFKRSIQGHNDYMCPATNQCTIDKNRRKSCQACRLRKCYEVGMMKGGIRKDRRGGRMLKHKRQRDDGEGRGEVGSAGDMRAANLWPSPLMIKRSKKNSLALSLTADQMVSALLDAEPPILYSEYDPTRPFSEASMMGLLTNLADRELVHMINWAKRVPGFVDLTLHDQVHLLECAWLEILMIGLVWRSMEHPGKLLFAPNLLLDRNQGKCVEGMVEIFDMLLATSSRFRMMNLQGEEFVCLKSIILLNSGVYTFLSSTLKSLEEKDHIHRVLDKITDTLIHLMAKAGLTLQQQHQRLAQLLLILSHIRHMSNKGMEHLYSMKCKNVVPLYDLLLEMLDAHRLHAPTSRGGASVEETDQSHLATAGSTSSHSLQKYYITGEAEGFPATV
- Measurement Description: qHTS assay to identify small molecule antagonists of the estrogen receptor alpha (ER-alpha) signaling pathway using the BG1 cell line in the presence of 0.1 nM 17-beta-estradiol (AID 1259244); further: nearly all actives have a fitted effect of over 50% in size
- Recorded Conditions: VM7Luc4E2 (BG1) ERE-luciferase, antagonist mode, 0.1 nM E2, 22 h; series mostly up to 92.4 µM
Results filed as inconclusive are left out. Activity calls are given as the source filed them. The call rests on the fitted dose curve; in most records, active means well fitted inhibition curve with a large enough effect in the repeat runs; inconclusive means weak or mixed curves; inactive means no such curve, though single readings can be large or run the other way.
Hi! Could you answer with just one of these? active, inactive

[
  {
    "Compound": "C=CC(C)(O)CCCC(C)CCCC(C)CCCC(C)C (stereo unspecified)",
    "Category": "inactive"
  },
  {
    "Compound": "CC1CC(=O)NN=C1c1ccc(NCC(C)(C)NCC(O)COc2cc(Cl)ccc2C#N)cc1 (stereo unspecified)",
    "Category": "inactive"
  }
]

Dear all, I need the recorded test outcome for CCCOC(=O)c1ccc(N)cc1 , thank you.
inactive

Dear all, I need the recorded test outcome for CC(C)(CCl)c1ccccc1 , thank you.
inactive

Dear all, I need the recorded test outcome for O=C(O)c1cccnc1C(=O)O , thank you.
inactive

====

- Measurement Description: qHTS assay to identify small molecule agonists of H2AX - cell viability counter screen (AID 1224847); further: nearly all actives have a fitted effect of over 30% in size
- Recorded Conditions: CHO-K1 viability, CellTiter-Glo luminescence, 3 h; series mostly up to 154 µM
- Text: National Center for Advancing Translational Sciences [NCATS] NIH Chemical Genomics Center [NCGC] U.S. Environmental Protection Agency [EPA] National Institutes of Environmental Health Sciences [NIEHS] National Toxicology Program [NTP] U.S. Food and Drug Administration [FDA] HTRF phospho-H2AX (Ser139) assay (Cisbio Bioassays, US) enables the quantitative detection of the histone variant H2AX when phosphorylated on serine 139. […]
Records with an inconclusive call do not appear. Active and inactive are the calls of the source. Calls come from the whole dose curve.
Hi! Could you answer with just one of these? label 1 = active, label 0 = inactive

[
  {
    "Molecule": "CC[C@H](NC(=O)c1cc(F)ccc1NS(=O)(=O)c1cccc2cccnc12)c1ccccc1",
    "Category": "label 0"
  },
  {
    "Molecule": "O=C(CS)OCCOC(=O)CS",
    "Category": "label 0"
  },
  {
    "Molecule": "CCOC(=O)c1ccccc1OC",
    "Category": "label 0"
  }
]

Dear all, I need the recorded test outcome for CC(=O)Nc1ccc(N)cc1 , thank you.
label 0

Dear all, I need the recorded test outcome for CCC(=O)Oc1ccc(/C(CC)=C(\CC)c2ccc(OC(=O)CC)cc2)cc1 , thank you.
label 0

Dear all, I need the recorded test outcome for Cc1cc(O)c(C(C)C)cc1Cl , thank you.
label 1

Dear all, I need the recorded test outcome for CCC(C)(C)C1CCC(O)CC1 (stereo not drawn) , thank you.
label 0

Dear all, I need the recorded test outcome for CCCC1C(CC)=CC(CC)=CN1c1ccccc1 (stereo not drawn) , thank you.
label 0

====

- Tested On: Nuclear receptor subfamily 1 group I member 2 (Homo sapiens)
- Measurement Description: Human pregnane X receptor (PXR) activation by small molecules, qHTS assay (AID 1346985); further: nearly all actives have a fitted effect of over 40% in size
- Recorded Conditions: DPX-2 HepG2 CYP3A4-luciferase, 24 h; series mostly up to 38.3 µM
Records with an inconclusive call do not appear. The source made the active and inactive calls. Calls follow the shape of the dose curve; as a rule, active = well fitted activation curve with a large enough effect in the repeat runs; inconclusive = weak or mixed curves; inactive = flat fitted curve, though single readings scatter.
Hi! Could you answer with just one of these? active, inactive

Some solved cases for reference:
[
  {
    "Molecule": "C[N+](C)(C)CCOC(N)=O",
    "Category": "inactive"
  },
  {
    "Molecule": "CCCOC(=O)c1ccc(N)cc1",
    "Category": "inactive"
  },
  {
    "Molecule": "COCCOC(=O)C1=C(C)NC(C)=C(C(=O)OC/C=C/c2ccccc2)C1c1cccc([N+](=O)[O-])c1 (configuration not stated)",
    "Category": "active"
  },
  {
    "Molecule": "CCNC(=O)N1CCN(CCCC(c2ccc(F)cc2)c2ccc(F)cc2)CC1",
    "Category": "inactive"
  },
  {
    "Molecule": "CCCCCCCCCCCCCCC[C@H](O)[C@@H](N)CO",
    "Category": "inactive"
  },
  {
    "Molecule": "N#C/C(=C1\\SCC(c2ccccc2Cl)S1)n1ccnc1 (configuration not stated)",
    "Category": "active"
  }
]

Switching to the query record.
Dear all, I need the recorded test outcome for CO[C@H]1C=CO[C@@]2(C)Oc3c(C)c(O)c4c(O)c(c5c(c4c3C2=O)=NC2(CCN(CC(C)C)CC2)N=5)NC(=O)/C(C)=C\C=C/[C@H](C)[C@H](O)[C@@H](C)[C@@H](O)[C@@H](C)[C@H](OC(C)=O)[C@@H]1C , thank you.
active
